The reported numbers originate from the NIST ThermoML archive (doi:10.1016/j.fluid.2009.08.017).

- assay_method_text: activity coefficient (dimensionless); of the first substance listed, at infinite dilution; xn = mol fraction of the nth substance listed
- settings: 308.15 K; 101 kPa; Liquid; Chromatography; x1 = 0
readout: activity coefficient

Solved cases (5 shown):
In [3]: df
Out[3]:
                                   molecule               readout  experimental_result
0  C=CCCCC [hex-1-ene] + CCCCCCOCn1cc[n+](C)c1.O=S(=O)([N-]S(=O)(=O)C(F)(F)F)C(F)(F)F  activity coefficient                 4.72
1  C1CCCCCC1 [cycloheptane] + CCCCCCOCn1cc[n+](COCCCCCC)c1.O=S(=O)([N-]S(=O)(=O)C(F)(F)F)C(F)(F)F  activity coefficient                  2.6
2  COC(C)(C)C [2-methoxy-2-methylpropane] + CCCCCCOCn1cc[n+](COCCCCCC)c1.O=S(=O)([N-]S(=O)(=O)C(F)(F)F)C(F)(F)F  activity coefficient                 0.78
3  C1CCCCCCC1 [cyclooctane] + CCCCCCOCn1cc[n+](C)c1.O=S(=O)([N-]S(=O)(=O)C(F)(F)F)C(F)(F)F  activity coefficient                 7.57
4  CCCCCCC [heptane] + CCCCCCOCn1cc[n+](C)c1.O=S(=O)([N-]S(=O)(=O)C(F)(F)F)C(F)(F)F  activity coefficient                   10

For this molecule ( CCCCCCCC [octane] + CCCCCCOCn1cc[n+](C)c1.O=S(=O)([N-]S(=O)(=O)C(F)(F)F)C(F)(F)F ), measured activity coefficient is 12.8

Please fill in: activity coefficient reported for CCCO [propan-1-ol] + CCCCCCOCn1cc[n+](COCCCCCC)c1.O=S(=O)([N-]S(=O)(=O)C(F)(F)F)C(F)(F)F = 1.19

Measured activity coefficient, CCCOCCC [dipropyl ether] + CCCCCCOCn1cc[n+](C)c1.O=S(=O)([N-]S(=O)(=O)C(F)(F)F)C(F)(F)F : 2.89

// field: activity coefficient; key: CO [methanol] + CCCCCCOCn1cc[n+](COCCCCCC)c1.O=S(=O)([N-]S(=O)(=O)C(F)(F)F)C(F)(F)F ; value = 1.06

get_value(item= c1ccccc1 [benzene] + CCCCCCOCn1cc[n+](C)c1.O=S(=O)([N-]S(=O)(=O)C(F)(F)F)C(F)(F)F , readout=activity coefficient) returns 0.807

Documented activity coefficient of C=CCCCCCC [oct-1-ene] + CCCCCCOCn1cc[n+](C)c1.O=S(=O)([N-]S(=O)(=O)C(F)(F)F)C(F)(F)F : 7.67
